# Tested on: PIP tumor and PC3 tumor
# PROTOCOL NOTES: Biodistribution of 125I labeled compounds 17, 18, 26 and 27 in tumor bearing nude mice
# Type: in vivo
# CONDITION NOTES: 4 h
MEASURED ATTRIBUTE: Biodistribution: Spleen (% ID/g)

{"COMPOUND": "O=C(O)CC[C@H](NC(=O)N[C@@H](CCCCNC(=O)[C@H](Cc1ccccc1)NC(=O)COc1ccc(C[C@H](NC(=O)[C@H](CCC(=O)O)NC(=O)[C@H](CCC(=O)O)NC(=O)c2ccc([125I])cc2)C(=O)O)cc1)C(=O)O)C(=O)O [[^125I]27]", "ASSAY RESULT": 13.16}

(A) O=C(O)CC[C@H](NC(=O)N[C@@H](CCCCNC(=O)[C@H](Cc1ccccc1)NC(=O)[C@H](CCC(=O)O)NC(=O)c1ccc([125I])cc1)C(=O)O)C(=O)O [[^125I]17]
(B) O=C(O)CC[C@H](NC(=O)N[C@@H](CCCCNC(=O)[C@H](Cc1ccccc1)NC(=O)COc1ccc(C[C@H](NC(=O)[C@H](CCC(=O)O)NC(=O)c2ccc([125I])cc2)C(=O)O)cc1)C(=O)O)C(=O)O [[^125I]26]
(C) O=C(O)CC[C@H](NC(=O)N[C@@H](CCCCNC(=O)[C@H](Cc1ccccc1)NC(=O)[C@H](CCC(=O)O)NC(=O)[C@H](CCC(=O)O)NC(=O)c1ccc([125I])cc1)C(=O)O)C(=O)O [[^125I]18]
input: Ordering: ascending Biodistribution: Spleen. Order the labels as requested and list them.
output: A, C, B
(A: 0.46 % ID/g, C: 4.37 % ID/g, B: 15.37 % ID/g)
